So I've got a bunch of compounds here, and I need their CRL7250_AUC values.
system: CRL-7250 cells; assay: qHTS cell viability (CellTiter-Glo, 72 h; primary screen), control cell line; assay type: cell-based; details: MIPE library, 11-point DRC, control cell line, sheet S2E
Structures can show the parent of a compound that is named as a salt.
I'd appreciate a reply containing only the number, no unit.

CRL7250_AUC in this record for CN[C@@H]1[C@H](O)[C@H](NC)[C@H]2O[C@@]3(O)C(=O)C[C@@H](C)O[C@H]3O[C@@H]2[C@H]1O.Cl.Cl [Spectinomycin dihydrochloride] : 477.882

CRL7250_AUC in this record for Cc1[nH]c(/C=C2\C(=O)Nc3ccccc32)c(C)c1CCC(=O)O [Orantinib] : 403.945

CRL7250_AUC in this record for CN1CCCC(n2nc(Cc3ccc(Cl)cc3)c3ccccc3c2=O)CC1 (stereo not shown) [Azelastine hydrochloride] : 443.828

CRL7250_AUC in this record for O=C(CCCCCCC(=O)Nc1ccccc1)NO [Suberoylanilide hydroxamic acid] : 429.882

CRL7250_AUC in this record for COc1cc(/C=C/C(=O)CC(=O)/C=C/c2ccc(O)c(OC)c2)ccc1O [Curcumin] : 433.368

CRL7250_AUC in this record for Cc1c(C)n(Cc2ccc(-c3ccccc3C(=O)O)cc2)c2ccc(C(=O)N[C@@H](C)c3ccc([N+](=O)[O-])cc3)cc12 [SR1664] : 475.771

CRL7250_AUC in this record for C=C1C(=O)[C@]23[C@H](O)[C@H]1CC[C@H]2[C@@]12CO[C@]3(O)[C@@H](O)[C@@H]1C(C)(C)CC[C@@H]2O [Oridonin] : 432.105

CRL7250_AUC in this record for COCC1(CO)C(=O)C2CCN1CC2 (stereo not shown) [APR-246] : 448.778

CRL7250_AUC in this record for CC#C[C@]1(O)CC[C@H]2[C@@H]3CCC4=CC(=O)CCC4=C3[C@@H](c3ccc(N(C)C)cc3)C[C@@]21C [Mifepristone] : 445.154

CRL7250_AUC in this record for O=C(CCc1ccc(O)cc1)c1c(O)cc(O)cc1O [Phloretin] : 456.981

CRL7250_AUC in this record for CC1=C(/C=C/C(C)=C/C=C/C(C)=C\C(=O)O)C(C)(C)CCC1 [Isotretinoin] : 458.179

CRL7250_AUC in this record for CC(=O)SCC(Cc1ccccc1)C(=O)NCC(=O)OCc1ccccc1 (stereo not shown) [Racecadotril] : 474.01

CRL7250_AUC in this record for CCNC(=O)Nc1ccc2ncc(Nc3ccc(C)cc3)nc2n1 [D-106669] : 461.458

CRL7250_AUC in this record for O=c1cc(-c2ccc(O)cc2)oc2cc(O)cc(O)c12 [Apigenin] : 438.96

CRL7250_AUC in this record for CC[C@@]1(O)C(=O)OCc2c1cc1n(c2=O)Cc2cc3c(CN(C)C)c(O)ccc3nc2-1 [Topotecan HCl] : 391.937

CRL7250_AUC in this record for CN(C)CC[C@H](CSc1ccccc1)Nc1ccc(S(=O)(=O)NC(=O)c2ccc(N3CCN(Cc4ccccc4-c4ccc(Cl)cc4)CC3)cc2)cc1[N+](=O)[O-] [ABT-737] : 467.3

----------
assay: qHTS cell viability (CellTiter-Glo, 72 h; primary screen), control cell line; format: cell-based, mouse; conditions: mouse, NIH-3T3 cells (control cell line); 3T3, Log (M) -5.76782; read-out: Percent viability
endpoint: viability at 72 h, 1.71 µM (%)
Please respond with the number in % and leave the unit unwritten.

viability at 72 h, 1.71 µM in this record for COCCn1c2c([n+](Cc3cnccn3)c1C)C(=O)c1ccccc1C2=O [sepantronium bromide, reference compound] : 96.1

----------
tested on: MKL-2 cells (VP-MCC); test: qHTS cell viability (CellTiter-Glo, 72 h; primary and follow-up small molecule screen); type: cell-based, human; details: MKL2, 72h, Log (M) -8.19919
So I've got a bunch of compounds here, and I need their Percent viability values.
Please respond with the number in % and leave the unit unwritten.

Percent viability in this record for CCn1cc(-c2ccnc3[nH]c(-c4cccc(CN(C)C)c4)cc23)c(-c2ccc(NC(=O)N(C)C)cc2)n1 [GSK-1070916A, reference compound] : 59.6

Percent viability in this record for CCS(=O)(=O)c1cccc(-c2cc(C(=O)NC3CCN(C)CC3)c(C)c3[nH]c4ncc(C)cc4c23)c1 [TAK-901, reference compound] : 48.4

Percent viability in this record for O=C(Nc1cccc(Cl)c1)Nc1ncc(CCNc2ncnc3ccsc23)s1 [SNS-314, reference compound] : 55.1

Percent viability in this record for Cc1cc(Nc2cc(N3CCN(C)CC3)nc(Sc3ccc(NC(=O)C4CC4)cc3)n2)[nH]n1 [Tozasertib, reference compound] : 79.6

----------
test system: VP-MCC cell lines (WAGA, MKL-1, MKL-2); assay: qHTS cell viability, VP-MCC cell lines as a group (mean AUC, VP.MCC.avg); assay type: cell-based, human
So I've got a bunch of compounds here, and I need their VP-MCC_Avg_AUC values.

Form field, VP-MCC_Avg_AUC with VP-MCC cell lines (WAGA, MKL-1, MKL-2), item C[C@H](CN1CCOCC1)C(C(=O)N1CCCC1)(c1ccccc1)c1ccccc1.O=C(O)C(O)C(O)C(=O)O [Dextromoramide tartrate] : 390.87

Form field, VP-MCC_Avg_AUC with VP-MCC cell lines (WAGA, MKL-1, MKL-2), item "CNC(=O)[C@H](CC1=CN=C2C=CCC=C12)NC(=O)[C@@H](CC(=O)NO)CC(C)C" : 298.252

Form field, VP-MCC_Avg_AUC with VP-MCC cell lines (WAGA, MKL-1, MKL-2), item CC[C@H]1C[C@@H]2C[C@H]3c4[nH]c5ccc(OC)cc5c4CCN(C2)[C@@H]13.Cl [Ibogaine hydrochloride] : 430.539

Form field, VP-MCC_Avg_AUC with VP-MCC cell lines (WAGA, MKL-1, MKL-2), item CC(C)(C)CC(C)(C)c1ccc(OCCOCC[N+](C)(C)Cc2ccccc2)cc1 [Benzethonium chloride] : 349.456

Form field, VP-MCC_Avg_AUC with VP-MCC cell lines (WAGA, MKL-1, MKL-2), item "COc1cc(CCN)c(OC)cc1Br.Cl" : 402.781

Form field, VP-MCC_Avg_AUC with VP-MCC cell lines (WAGA, MKL-1, MKL-2), item "CC(=O)OC1(c2ccccc2)CCN(CCc2ccccc2)CC1" : 382.197

Form field, VP-MCC_Avg_AUC with VP-MCC cell lines (WAGA, MKL-1, MKL-2), item CC[N+](CC)(CC)CCOc1ccc(/C=C/c2ccccc2)cc1 [Stilonium iodide] : 322.637

Form field, VP-MCC_Avg_AUC with VP-MCC cell lines (WAGA, MKL-1, MKL-2), item CCC(=O)O[C@@H]1C=C2CCC3C(CCC4(C)C3CC[C@@H]4OC(=O)CC)C2CC1 (stereo partly drawn) [Bolandiol dipropionate] : 402.354

Form field, VP-MCC_Avg_AUC with VP-MCC cell lines (WAGA, MKL-1, MKL-2), item CCCCCCCCCCCC[N+](C)(C)CCOc1ccccc1 [Domiphen bromide] : 351.479

----------
experiment: qHTS cell viability (CellTiter-Glo, 72 h; primary screen), control cell line; format: cell-based, human; details: human, HEK293T cells (control cell line); HEK293T, Log (M) -4.81358; read-out: Percent viability
endpoint: viability at 72 h, 15.4 µM (%)
Please respond with the number in % and leave the unit unwritten.

viability at 72 h, 15.4 µM in this record for COCCn1c2c([n+](Cc3cnccn3)c1C)C(=O)c1ccccc1C2=O [sepantronium bromide, reference compound] : 1

----------
system: MKL-1 cells (VP-MCC); test: qHTS cell viability (CellTiter-Glo, 72 h; primary and follow-up small molecule screen); assay type: cell-based, human; details: MKL1, 72h, Log (M) -7.24494
So I've got a bunch of molecules here, and I need their Percent viability values.
Units required after the number.

Percent viability in this record for Cc1cc(Nc2cc(N3CCN(C)CC3)nc(Sc3ccc(NC(=O)C4CC4)cc3)n2)[nH]n1 [Tozasertib, reference compound] : 39.2%

Percent viability in this record for O=C(Nc1cccc(Cl)c1)Nc1ncc(CCNc2ncnc3ccsc23)s1 [SNS-314, reference compound] : 26.9%

Percent viability in this record for CCn1cc(-c2ccnc3[nH]c(-c4cccc(CN(C)C)c4)cc23)c(-c2ccc(NC(=O)N(C)C)cc2)n1 [GSK-1070916A, reference compound] : 24.8%

Percent viability in this record for CCS(=O)(=O)c1cccc(-c2cc(C(=O)NC3CCN(C)CC3)c(C)c3[nH]c4ncc(C)cc4c23)c1 [TAK-901, reference compound] : 42.7%
